test: AUC (0 to infinity) in BALB/c mouse liver at 3 mg/kg, po by LC-MS/MS analysis
Assay type: ADME, organism-based
Set-up: dose 3 mg/kg, route oral, time infinity
reported-property: AUC(0-inf)

[
  {
    "mol": "COC(=O)C1=C(CN2CCOC[C@H]2C(=O)O)NC(c2nccs2)=N[C@H]1c1ccc(Cl)c(F)c1",
    "reported-property": "AUC(0-inf)",
    "result": "20000 ng·h/mL"
  }
]

====

test: Ionization constant (base), pKa of the compound
Format: physicochemical

[
  {
    "mol": "COC(=O)C1=C(CN2CCOC[C@H]2C(=O)O)NC(c2nccs2)=N[C@H]1c1ccc(Cl)c(F)c1",
    "pKa": 5.9
  }
]

====

test: Cmax in BALB/c mouse at 3 mg/kg, po by LC-MS/MS analysis
Assay type: ADME, organism-based
Set-up: dose 3 mg/kg, route oral
conditions-used: in vivo

[
  {
    "mol": "COC(=O)C1=C(CN2CCOC[C@H]2C(=O)O)NC(c2nccs2)=N[C@H]1c1ccc(Cl)c(F)c1",
    "Cmax (ng/mL)": 254
  }
]

====

test: AUC (0 to infinity) in BALB/c mouse plasma at 3 mg/kg, po by LC-MS/MS analysis
Assay type: ADME, organism-based
Design: dose 3 mg/kg, route oral, time infinity

[
  {
    "mol": "COC(=O)C1=C(CN2CCOC[C@H]2C(=O)O)NC(c2nccs2)=N[C@H]1c1ccc(Cl)c(F)c1",
    "AUC(0-inf) [ng·h/mL]": 527
  }
]

====

test: Volume of distribution at steady state in BALB/c mouse at 1 mg/kg, iv by LC-MS/MS analysis
Assay type: ADME, organism-based
conditions-used: in vivo, read-out: Vdss

[
  {
    "mol": "COC(=O)C1=C(CN2CCOC[C@H]2C(=O)O)NC(c2nccs2)=N[C@H]1c1ccc(Cl)c(F)c1",
    "Vd": "2.7 L/kg"
  }
]

====

test: Induction of CYP3A4 gene expression in cryopreserved human hepatocytes assessed as increase in CYP3A4 mRNA level at 10 uM incubated for 24 hrs by qRT-PCR analysis relative to rifampicin
Assay type: ADME, cell-based

[
  {
    "mol": "CCOC(=O)C1=C(CN2CCOC[C@H]2C(=O)O)NC(c2nccs2)=N[C@H]1c1ccc(F)c(F)c1",
    "Activity [%]": 41
  },
  {
    "mol": "COC(=O)C1=C(CN2CC(F)(F)C[C@H]2C(=O)O)NC(c2nccs2)=N[C@H]1c1ccc(F)cc1F",
    "Activity [%]": 96
  },
  {
    "mol": "COC(=O)C1=C(CN2CCOC[C@H]2C(=O)O)NC(c2nccs2)=N[C@H]1c1ccc(Br)c(F)c1",
    "Activity [%]": 26
  },
  {
    "mol": "CCOC(=O)C1=C(CN2CCOC[C@H]2C(=O)O)NC(c2nccs2)=N[C@H]1c1ccc(F)cc1",
    "Activity [%]": 85
  },
  {
    "mol": "CCOC(=O)C1=C(CN2CCOC[C@H]2C(=O)O)NC(c2nccs2)=N[C@H]1c1ccc(Br)c(F)c1",
    "Activity [%]": 73
  },
  {
    "mol": "CCOC(=O)C1=C(CN2CCOC[C@H]2C(=O)O)NC(c2nccs2)=N[C@H]1c1ccc(F)c(F)c1F",
    "Activity [%]": 105
  },
  {
    "mol": "CCOC(=O)C1=C(CN2CCOC[C@H]2C(=O)O)NC(c2nccs2)=N[C@H]1c1cccc(F)c1",
    "Activity [%]": 94
  },
  {
    "mol": "COC(=O)C1=C(CN2CCOC[C@H]2C(=O)O)NC(c2nccs2)=N[C@H]1c1ccc(Cl)c(F)c1",
    "Activity [%]": 25
  },
  {
    "mol": "COC(=O)C1=C(CN2CCOC[C@H]2C(=O)O)N=C(c2nccs2)N[C@H]1c1ccc(F)cc1Cl",
    "Activity [%]": 111
  }
]
